Biological target: V2122 (Streptomyces avidinii, UniProt P22629, E125D/E140N/N47D/N73G/R108K/R127K/S51D/S69N/Y107S/Y46S)
Construct: T7-Tag
Sequence (P22629 37-163 Y46S/N47D/S51D/S69N/N73G/Y107S/R108K/E125D/R127K/E140N): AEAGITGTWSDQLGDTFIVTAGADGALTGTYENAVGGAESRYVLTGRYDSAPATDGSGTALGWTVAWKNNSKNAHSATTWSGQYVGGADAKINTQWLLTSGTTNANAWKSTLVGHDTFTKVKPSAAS
Experiment: SPR analysis of affinity between V2122 and compound
Measured Property: Kd (nM)
# number only, unit nM dropped from output

For N=C1N[C@H]2[C@H](CS[C@H]2CCCCC(=O)NCCCCCC(=O)NCCNC(=O)CCCCCNC(=O)CCCC[C@@H]2SC[C@@H]3NC(=N)N[C@@H]32)N1 [Compound 7, di(2,2,2-trifluoroacetate)] , write its Kd.
3.15

Hey, just so you know, these numbers are from patent US11161884B2.
